Molecular target: Tyrosyl-tRNA synthetase, putative (Trypanosoma cruzi (strain CL Brener)) (UniProt Q4DSP6)
Sequence (whole entry): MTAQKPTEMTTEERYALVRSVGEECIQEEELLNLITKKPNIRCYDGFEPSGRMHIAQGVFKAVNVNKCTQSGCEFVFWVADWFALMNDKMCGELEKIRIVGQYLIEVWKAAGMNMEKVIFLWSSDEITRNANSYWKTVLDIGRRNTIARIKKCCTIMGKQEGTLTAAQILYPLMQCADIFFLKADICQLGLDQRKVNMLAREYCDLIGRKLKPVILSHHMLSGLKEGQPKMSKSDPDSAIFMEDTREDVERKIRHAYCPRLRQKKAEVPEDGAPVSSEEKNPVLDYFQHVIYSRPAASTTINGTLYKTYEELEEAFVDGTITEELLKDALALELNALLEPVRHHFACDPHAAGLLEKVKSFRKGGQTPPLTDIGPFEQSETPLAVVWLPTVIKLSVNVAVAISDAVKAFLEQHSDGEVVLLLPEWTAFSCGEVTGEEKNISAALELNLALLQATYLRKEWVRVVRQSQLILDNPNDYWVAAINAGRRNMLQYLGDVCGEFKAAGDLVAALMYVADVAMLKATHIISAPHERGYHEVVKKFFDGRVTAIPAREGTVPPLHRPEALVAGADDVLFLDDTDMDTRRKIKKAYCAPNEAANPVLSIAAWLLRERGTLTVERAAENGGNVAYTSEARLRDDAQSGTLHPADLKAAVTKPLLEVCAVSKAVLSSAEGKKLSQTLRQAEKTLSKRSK
Assay: Trypanosoma cruzi tyrosyl tRNA synthetase (TcYRS) _High Tyrosine SOP
Type: functional
Set-up: scale not given: in the data most compounds retested in dose-response had high values
Conditions: 30 µM
Provide the reported Percent Effect of each item.
Answers are plain numbers, in %.

MOLECULE: c1cc(CNCc2ccnc(N3CCOCC3)c2)c2c(c1)OCCO2
RECORDED NUMBER: 1.07

MOLECULE: CSCC[C@H](N)C(=O)NCc1cc2n(n1)CCCN(C1CCCCC1)C2
RECORDED NUMBER: 4.21

MOLECULE: CC(C)CNC(=O)CN1C=Nc2ccccc2S1(=O)=O
RECORDED NUMBER: 0.493

MOLECULE: CC(=O)Nc1nc(C(=O)NC(C)c2ccc3c(c2)OCCO3)cs1 (stereo unspecified)
RECORDED NUMBER: 3.81

MOLECULE: NC(=O)C1(Cc2ccccc2-c2ccccc2)CCCN(CC2CC2)C1 (stereo unspecified)
RECORDED NUMBER: 2.13

# context switch: different molecule, same Percent Effect
(Q) What value of Percent Effect has been reported for the following molecule? CC(=O)N(Cc1ncc(C)o1)C1CCN(Cc2ccncc2Cl)C1 (stereo unspecified)
(A) 11.4
